Tested on: 786-0
Method Notes: NCI tumour cell line growth inhibition, 48 h
Active and inactive are the calls of the source. Rule as the data show it: active = GI50 up to about 1.1 µM and inactive = higher.
Outcome codes: class 1 for active, class 0 for inactive

>>> print(df.to_string())
                                    compound  assigned_label
 0  O=C(O)c1nc(-c2ccccn2)c(-c2ccccn2)nc1C(=O)O         class 0
 1           CN(C)/C=N/NC(=O)/C(C#N)=C/N(C)C         class 0
 2          NCCNCc1c2ccccc2c(CNCCN)c2ccccc12         class 0
 3  CC1=C(C(=O)Nc2ccc([N+](=O)[O-])cc2)C(c2ccccc2O)C(C(=O)Nc2ccc([N+](=O)[O-])cc2)=C(C)N1         class 0
 4  COc1ccc(-c2cc(-c3ccc(Nc4ccnc5cc(C(F)(F)F)ccc45)cc3)[nH]c(=O)c2C#N)c2ccccc12         class 0
 5  CC(=O)/C=c1\[nH]/c(=C\C=C\c2ccccc2)c(=O)n1/C=C1\C(=O)Oc2ccccc2C1=O         class 0
 6        C/C(=N/NC(=S)Nc1cccc(C)c1)c1ccccn1         class 1
 7       O=C1OC(c2ccccc2)=N/C1=C/C=C/c1ccco1         class 0
 8  Cc1cc(S(=O)(=O)Nc2cc(N)n[nH]2)c(SCc2nc(N)nc(N(C)C)n2)cc1Cl         class 0
 9  Cn1c2c(c3ccccc31)CC1c3c(c4ccccc4n3C)CC21 (stereo not drawn)         class 0
10                       CCCCCCCCSC(=O)NCCCC         class 0
11  CC(C)N1C(C)[C@@H](c2ccccc2)O[P@@]1(=O)CC1=CCCCC1 (stereo partly drawn)         class 0
12  C[C@]12CCC[C@H](Cl)C1(O)C[C@H](C(=O)O)CC2 (stereo partly drawn)         class 0

----------
Tested on: SK-OV-3
Method Notes: NCI tumour cell line growth inhibition, 48 h
Calls of active or inactive are those of the source. Cut-off read from the data, not from the text of the source: active = GI50 up to about 1.1 µM and inactive = higher.
Value Kind: GI50

                                    compound  tested_target             reported
 0       O=C1OC(c2ccccc2)=N/C1=C/C=C/c1ccco1        SK-OV-3  > 100 µM (inactive)
 1             COCN(C)c1nc(N(C)C)nc(N(C)C)n1        SK-OV-3  > 100 µM (inactive)
 2            Nc1ccc2c(c1)C(=O)c1c(F)cccc1-2        SK-OV-3   85.7 µM (inactive)
 3  COc1ccc(OC)c(-c2cc(=O)c3c(OC)c(OC)c(OC)c(OC)c3o2)c1        SK-OV-3   22.8 µM (inactive)
 4  Cc1c(Cl)ccc2c1NC(=O)C2(O)CC(=O)c1ccc(Cl)cc1 (stereo not given)        SK-OV-3  > 100 µM (inactive)
 5       COc1ccc(N/N=C(\CCN(C)C)c2ccccc2)cc1        SK-OV-3   3.41 µM (inactive)
 6            CON(C)c1nc(N)c(C#N)c(C#N)c1C#N        SK-OV-3   > 10 µM (inactive)
 7  C=CCC12CC(=O)CCC1c1ccc(OC)cc1C2=O (stereo not given)        SK-OV-3  > 100 µM (inactive)
 8  CC1(C)O[C@@H](CP(c2ccccc2)c2ccccc2)[C@H](CP(c2ccccc2)c2ccccc2)O1        SK-OV-3   15.2 µM (inactive)
 9                       CCCCCCCCSC(=O)NCCCC        SK-OV-3  > 100 µM (inactive)
10   CCCCOCCOC1=C(Cl)C(=O)c2c(O)ccc(O)c2C1=O        SK-OV-3   2.98 µM (inactive)
11                 Cc1nc2c(ccc3ncccc32)[nH]1        SK-OV-3  > 100 µM (inactive)
12  Cn1c2c(c3ccccc31)CC1c3c(c4ccccc4n3C)CC21 (stereo not given)        SK-OV-3  > 100 µM (inactive)
13                Sc1ccc2ccccc2c1CNCc1ccccc1        SK-OV-3   11.8 µM (inactive)
14         CSCCCNC(=O)c1csc(-c2csc(CCN)n2)n1        SK-OV-3  > 100 µM (inactive)
15  Cc1c2cccc-2c(OCCOC(=O)n2ccnc2)cc2c1[nH]c1ccccc12        SK-OV-3   4.74 µM (inactive)
16  COC12CCC(=O)C=C1c1ccccc1N2C(C)=O (stereo not given)        SK-OV-3  > 100 µM (inactive)
17          CS(=O)(=O)OCCCSCCSCCCOS(C)(=O)=O        SK-OV-3  > 100 µM (inactive)
18  N#CC1=C(c2ccccc2)C(O)(c2ccccc2)NC1=O (stereo not given)        SK-OV-3   32.7 µM (inactive)
19  COc1ccc(OC)c(-c2cc(O)c3cc4c(cc3n2)OCO4)c1        SK-OV-3   3.49 µM (inactive)
20           CN(C)/C=N/NC(=O)/C(C#N)=C/N(C)C        SK-OV-3  > 100 µM (inactive)
21  CN(Cc1cnc2nc(N)nc(N)c2n1)c1ccc(C(=O)NC(CO)CCCO)cc1 (stereo not given)        SK-OV-3  > 100 µM (inactive)
22  C[C@@H](NC(=O)[C@@H]1C[C@]1(C)COC(=O)c1cc([N+](=O)[O-])cc([N+](=O)[O-])c1)c1cccc2ccccc12        SK-OV-3  > 100 µM (inactive)
23  O=C(O)CN(CC(=O)O)Cc1cc(C#Cc2ccc(C#Cc3ccccc3)cc2)cc(CN(CC(=O)O)CC(=O)O)n1        SK-OV-3     56 µM (inactive)
24  COc1ccc(/C(=N/N=c2\[nH]c3ccccc3n2Cc2ccccc2)C(=O)O)cc1        SK-OV-3   13.7 µM (inactive)

FYI, the data here is from ChEMBL document CHEMBL1201862.
